Study Target: T1, Anti-CD28 Fab (SEQ ID NOs: 696, 697)
T1 construct: Biotinylated and captured on neutravidin coated plates in the phage ELISA
T1 sequence (VH, as listed by the source, chain 1 of 2): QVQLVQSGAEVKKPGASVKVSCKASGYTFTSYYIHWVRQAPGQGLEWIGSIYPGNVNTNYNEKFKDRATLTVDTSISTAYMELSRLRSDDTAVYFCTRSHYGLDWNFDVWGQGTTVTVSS
T1 sequence (VL, as listed by the source, chain 2 of 2): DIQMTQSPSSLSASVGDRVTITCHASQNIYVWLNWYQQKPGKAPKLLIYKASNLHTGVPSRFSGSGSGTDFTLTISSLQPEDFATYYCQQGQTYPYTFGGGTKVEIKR
Method: phage ELISA, clonal phage on biotinylated anti-CD28 Fab captured on neutravidin, anti-M13-HRP detection
Measurement Kind: Anti-CD28 Fab signal (phage binding ELISA)

| Binder | Data Value |
| --- | --- |
| YCAGHLDIYLAKCL [Phage-1151] | 1.21 |
| YCVGHYPEYMEKCL [Phage-1147] | 1.22 |
| YCDGHSWEYLGKCL [Phage-1153] | 1.2 |
| YCDGHEARYMQKCL [Phage-1148] | 1.21 |
| YCDGHRPEYMSKCL [Phage-1155] | 1.18 |
| YCDGHSQEYMSKCL [Phage-1149] | 1.21 |
| YCDGHSMMYMQKCL [Phage-1145] | 1.23 |
| YCEGHSAEHMPKCL [Phage-1146] | 1.23 |

Every entry's value here was drawn from patent US20260242478A1.
